# experiment_summary: viability loss with induced miR-34 in A549 – imaging, A549 dox-inducible miR-34, nuclei and caspase counts, primary screen (AID 1347080)
# study_conditions: A549 miR-34 inducible, Hoechst nuclei count, 48 h; stronger effect = lower value; cell number ratio, induced over uninduced
Note to self: class = bucket of fold change, per lower level = under 0.9, middle level = from 0.9 up to 1, upper level = 1 and over

Cc1nc(N=Nc2ccc(C(=O)O)cc2)c(COP(=O)(O)O)c(C=O)c1O : upper level
O=C1NC(=O)C(=Cc2cccc(C(F)(F)F)c2)S1 : lower level
CC1CN(c2c(F)c(N)c3c(=O)c(C(=O)O)cn(C4CC4)c3c2F)CC(C)N1 (stereo not given) : middle level
COc1ccc(NS(=O)(=O)c2sc3ccc(Cl)cc3c2C)cc1N1CCNCC1 : middle level

Band of "CCn1c2ccccc2c2cc(Nc3ccnc(NCCCN4CCOCC4)n3)ccc21" ?
upper level

====

Field: inhibition. Provide a value for each of the compounds that follow.
# experiment_summary: growth inhibition, single agents and combos, ICB984, cell-based, cisplatin or BGB combos, synergistic combos for chromothripsis tumors (AID 1671451);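 also: cells exposed for 96 hours before readout; 0% = vehicle DMSO and 100% = killing by high DMSO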
# study_conditions: ICB984 medulloblastoma cells, drug combinations, cisplatin combo, at 0.5 µM, stronger effect = higher value
Non-standard residues stand in square brackets, D forms with d. Residues, ends and D or L forms follow the SMILES beside them. Dolaproine = CO[C@@H]([C@@H]1CCCN1)[C@@H](C)C(=O)O; Dil = CC[C@H](C)[C@H](NC)[C@@H](CC(=O)O)OC; NMeV = CN[C@H](C(=O)O)C(C)C
Numbers only, in %.

Solved cases below.
C[C@@H]1O[C@@H](O[C@@H]2[C@@H](O)[C@H](OCCc3ccc(O)c(O)c3)O[C@H](CO)[C@H]2OC(=O)C=Cc2ccc(O)c(O)c2)[C@H](O)[C@H](O)[C@H]1O : -31.1
Nc1nc(NC2CC2)cc(-c2cccc(Cl)c2Cl)n1 : -25.9
Cc1cn(C2C=CC(CO)O2)c(=O)[nH]c1=O (centres undefined) : -35.4
C=C1C(=O)O[C@@H]2C=C(C)CCC=C(C)CC[C@@H]12 : -18
CC(C)C(=O)SCCCCCCC(=O)Nc1nc(-c2ccccc2)cs1 : -33.4
COc1cccc2c1C(=O)c1c(O)c3c(c(O)c1C2=O)CC(O)(C(C)=O)CC3OC1CC(N)C(O)C(C)O1 (centres undefined) : -18.7
CCC(C)C(=O)OC1CC(C)C=C2C=CC(C)C(CCC3CC(O)CC(=O)O3)C21 (centres undefined) : -11.6
CC(C)(O)[C@H]1CC[C@@](C)(C2[C@@H](O)C[C@@]3(C)[C@@H]4C[C@H](O)C5C(C)(C)[C@@H](O)CCC56CC46CC[C@]23C)O1 (some centres undefined) : -30.1
NC(=O)c1ncn(C2OC(CO)C(O)C2O)c1O (centres undefined) : -21.3
C=C(C)C1CCC2(C(=O)O)CCC3(C)C(CCC4C5(C)CCC(O)C(C)(C)C5CCC43C)C12 (centres undefined) : -38

Give inhibition for all compounds that follow.
1. CCC(Sc1nnc2c3ccccc3n(CC)c2n1)C(=O)Nc1ccccc1OC (centres undefined)
2. CC[C@H](C)[C@@H]([C@@H](CC(=O)N1CCC[C@H]1[C@H](OC)[C@@H](C)C(=O)N[C@@H](Cc1ccccc1)C(=O)O)OC)N(C)C(=O)[C@@H](NC(=O)[C@@H](NC)C(C)C)C(C)C (H-[NMeV]V[Dil][Dolaproine]F-OH)
3. CCC1(O)C(=O)OCc2c1cc1n(c2=O)Cc2cc3cc(O)ccc3nc2-1 (centres undefined)
4. CC(C)c1ccc(-c2cc(=O)c3ccccc3o2)cc1
5. CC1CNC(=O)NC1=O (centres undefined)
6. O=C1C(=Cc2cccnc2)C(=O)c2ccccc21

-34.7
-3.43
-28.1
-24.5
-62.7
-37.3

Give inhibition for all compounds that follow.
1. C=C1CCC(O)CC1=CC=C1CCCC2(C)C1CCC2C(C)C=CC(C)C(C)C (centres undefined)
2. CON=C1CN(c2nc3c(cc2F)c(=O)c(C(=O)O)cn3C2CC2)CC1CN (centres undefined)
3. O=c1cc(-c2ccc(O)cc2)[nH]c(=S)[nH]1

1: -55.6; 2: -28.8; 3: -50.4
